Values from PubChem BioAssay (NCI)

system: SF-295 CNS; assay: NCI-60 one-dose screen, 48 h; conditions: 10 µM unless noted
Compounds without any hit were thinned out: in the full panel of roughly 83,000, 20% have a hit. The source made the active and inactive calls. Rule for the calls: active = growth percent below 10; inactive = the rest.
Outcome codes: yes (active), no (inactive)

[[record]]
compound = "CC(C)CSc1nc(-c2ccc(F)cc2)c(C#N)c(N2CCCCC2)n1"
group_label = "no"

[[record]]
compound = "COc1cc2c(cc1OC)C(Cc1cc(OC)c(OC)cc1[N+](=O)[O-])=NCC2"
group_label = "no"

[[record]]
compound = "CC(C)C(=O)c1ccc(Cl)s1"
group_label = "no"

[[record]]
compound = "CC[n+]1c(C)ccc2cc(C)ccc21"
group_label = "no"

[[record]]
compound = "CCN(CC)CCCC(C)Nc1c(C)cnc2cc(Cl)c(C)cc12 (stereo unspecified)"
group_label = "no"

[[record]]
compound = "CCCCCCCCCCC(C[N+](C)(C)C/C=C/c1ccccc1)C(O)c1ccccc1 (stereo unspecified)"
group_label = "no"

[[record]]
compound = "CCOC(=O)c1cc(C(=O)c2ccc(Br)cc2)n2cc(C)cc(C)c12"
group_label = "no"

[[record]]
compound = "C=CCNC(=S)NNc1ccc([N+](=O)[O-])cn1"
group_label = "no"

[[record]]
compound = "COc1cccc2c1n([O-])c1cccc(OC)c1[n+]2=O"
group_label = "no"

[[record]]
compound = "Ic1ccc(SSc2ccc(I)cc2)cc1"
group_label = "no"

[[record]]
compound = "COC(=O)c1cc(=O)nc(N/N=C/c2ccccc2O)s1"
group_label = "no"

[[record]]
compound = "CC[C@@H](C)/C=C(C)/C=C/C(=O)c1c(O)c(-c2ccc(OC(=O)[C@@]34CC[C@@](C)(C(=O)O3)C4(C)C)cc2)cn(O)c1=O"
group_label = "yes"

[[record]]
compound = "CCN(CC)c1ccc2nc3ccc(N=Nc4ccc(O)cc4)cc3[n+](-c3ccccc3)c2c1"
group_label = "no"

[[record]]
compound = "O=C(/C=C/c1ccc(Br)cc1)c1ccccc1"
group_label = "no"

[[record]]
compound = "Cc1nnc(/N=C2\\NC(=O)/C(=C/C=C/c3ccccc3)S2)s1"
group_label = "no"

[[record]]
compound = "CC1(C)NCCC[C@]2(C)[C@H]3CC=C4[C@@H]5C[C@](C)(COC(=O)c6ccccc6C(=O)O)CC[C@]5(C)CC[C@@]4(C)[C@]3(C)CC[C@@H]12"
group_label = "no"

[[record]]
compound = "NC(N)=Nc1ccc(/C=C2\\C=Cc3ccccc32)cc1"
group_label = "no"

[[record]]
compound = "BrCCCOc1ccc(Oc2ccc(OCCCBr)cc2)cc1"
group_label = "no"

[[record]]
compound = "CCOc1nc(-c2ccccc2)cc2c(O)c(C(=O)N/N=C/c3ccccc3O)[nH]c(=O)c12"
group_label = "no"

[[record]]
compound = "Cc1ncc(C(=O)Nc2ccc(CN3CCN(C)CC3)c(C(F)(F)F)c2)cc1C#Cc1c(N)ncc2ccccc12"
group_label = "yes"

[[record]]
compound = "COC(=O)c1ccc2[nH]c(O)c(C(=Nc3ccc(N(C)C(=O)CN4CCN(C)CC4)cc3)c3ccc(OC)cc3)c2c1"
group_label = "no"


* * *

Reported growth is given for each of the following molecules.
test system: K-562 leukemia; assay: NCI-60 one-dose screen, 48 h (100 = growth as untreated, 0 = no growth, -100 = all killed); settings: 10 µM unless noted
About 83,000 compounds went through this panel and 20% of them were active in at least one assay; those are over-represented in the sample as a whole.
measured_attribute: growth (%)

[[record]]
molecule = "CSC1=Nc2c(c(C)c(-c3ccccc3)n2CCCCl)C2=NC(=O)CN12"
unit_annotation = "%"
number = 19.3

[[record]]
molecule = "CCCCCCNC(=O)Oc1ccc(/C(=C(/C)Cc2ccc(OC)cc2)c2ccc(OCCN3CCCCC3)cc2)cc1"
unit_annotation = "%"
number = 36.8

[[record]]
molecule = "CCN(CC)CCNc1ncnc2c1cnn2-c1ccc(Cl)cc1"
unit_annotation = "%"
number = 45

[[record]]
molecule = "COc1cccc2c1nc1cccc(OC)c1[n+]2[O-]"
unit_annotation = "%"
number = 39.8

[[record]]
molecule = "COc1cc(/C(=C2/O[C@@H]([C@H]3COC(C)(C)O3)[C@H]3OC(C)(C)O[C@@H]23)c2ccc3c(c2)OCO3)cc(OC)c1OC"
unit_annotation = "%"
number = 40.8

[[record]]
molecule = "COc1ccc(Cn2cc3c(c2-c2ccccc2)CCc2cnoc2-3)cc1OC"
unit_annotation = "%"
number = 14.1

[[record]]
molecule = "O=C1C(Cl)=C(Nc2ccc(Nc3ccccc3)c(NC3=C(Cl)C(=O)c4ccccc4C3=O)c2)C(=O)c2ccccc21"
unit_annotation = "%"
number = 41.4

[[record]]
molecule = "CNc1nc2ncn(C)c2c(=O)[nH]1"
unit_annotation = "%"
number = 65.5

[[record]]
molecule = "O=C(Nc1ccc(-n2cc(-c3ccncc3)c(-c3ccc(Cl)c(O)c3)n2)cc1)c1ccc(Cl)c(Cl)c1"
unit_annotation = "%"
number = 10.3

[[record]]
molecule = "C/C(=N\\Nc1ccc(Cl)cn1)c1ccccn1"
unit_annotation = "%"
number = 5.63

[[record]]
molecule = "COc1nc(OC)nc(-c2cc(C(=O)c3ccc(Br)cc3)n3cc(C)cc(C)c23)n1"
unit_annotation = "%"
number = 91.1

[[record]]
molecule = "O=c1[nH]c2cc(O)ccc2n2cc3c(F)cccc3c12"
unit_annotation = "%"
number = 24.3

[[record]]
molecule = "CCCCCCCCCCCCOC(=O)/C=C\\C(=O)NC(N)=O"
unit_annotation = "%"
number = 44.2

[[record]]
molecule = "CCN(CC)C(=O)C1(C)CCCC2(C)c3cc(OC(C)=O)ccc3CCC12 (stereo unspecified)"
unit_annotation = "%"
number = 58.6

[[record]]
molecule = "Cc1cc(CSc2ccc(Cl)cc2)ccc1N"
unit_annotation = "%"
number = 99.6

[[record]]
molecule = "COc1ccc2c(N)ncc(C#Cc3cc(C(=O)Nc4ccc(CN5CCN(C)CC5)c(C(F)(F)F)c4)cnc3C)c2c1"
unit_annotation = "%"
number = -63.4

[[record]]
molecule = "COc1cc2c(cc1OC)C(Cc1cc(OC)c(OC)cc1[N+](=O)[O-])=NCC2"
unit_annotation = "%"
number = 69

[[record]]
molecule = "COc1ccc(/C=C(/C(=O)N2CCCCC2)c2cc(OC)c(OC)c(OC)c2)cc1"
unit_annotation = "%"
number = 11

[[record]]
molecule = "CCCC(CCC)Oc1ccc(CCCC2=C(O)c3ccccc3C(=O)C2=O)cc1"
unit_annotation = "%"
number = 23

[[record]]
molecule = "Clc1ccc(N/N=C/c2ccccn2)nc1"
unit_annotation = "%"
number = 10.8

[[record]]
molecule = "c1ccc(C(=NNc2nc3ccccc3o2)c2ccccn2)nc1"
unit_annotation = "%"
number = 10.9

